Each recorded value in this set is attributed to paper PMC6359284.

Test system: DX3puro (αvβ6−) cells
Test: 18F-radiolabeled peptide cell binding assay, αvβ6− cells
Assay type: cell-based
Conditions: 60 min incubation at 37 °C, n = 3
Square brackets hold non-standard residues; d marks the D form. Primed or numbered codes have the meaning given here. Ends that are not written are not given here. * marks the point of attachment. (18F)FB = 4-[18F]fluorobenzoyl, radiolabelled form of FB, O=C(c1ccc([18F])cc1)*; Benzoyl(4-F) = O=C(c1ccc(F)cc1)*; PEG28′ = not defined here

substance	target_entity	% binding to DX3puro (αvβ6−) cells
[^18F]FB-VGDLTYLKK ({(18F)FB}-VGDLTYLKK-NH2) [[^18F]1a]	DX3puro (αvβ6−) cells	less than 2%
FB-VGDLTYLKK([^18F]FB)-PEG28 ({Benzoyl(4-F)}-VGDLTYLKK((18F)FB)[PEG28′]) [[^18F]1h]	DX3puro (αvβ6−) cells	less than 2%
VGDLTYLKK([^18F]FB)-PEG28 (VGDLTYLKK((18F)FB)[PEG28′]) [[^18F]1f]	DX3puro (αvβ6−) cells	less than 2%
